Origin of values: paper PMC5146914

Assay: circular dichroism
Settings: 10 mM PBS; pH 7.4; 25 °C; 50-800 uM
Rule: satisfied for helicity not less than 60 rel %, not satisfied for anything less.

INSERT INTO results (structure_smiles, assigned_class) VALUES
  ('CC(=O)N[C@H]1CCCCC[S@@](=O)C[C@@H](C(N)=O)NC(=O)[C@H](C)NC(=O)[C@H](C)NC(=O)[C@H](C)NC1=O', 'satisfied'),
  ('CC(=O)N[C@H]1CCCCC[S@@](=O)C[C@@H](C(N)=O)NC(=O)[C@H](CCC(=O)O)NC(=O)[C@H](C)NC(=O)[C@H](CCCCN)NC1=O', 'not satisfied'),
  ('CC[C@H](C)[C@@H]1NC(=O)[C@H](C)NC(=O)[C@@H](NC(C)=O)CCCCC[S@@](=O)C[C@@H](C(N)=O)NC(=O)[C@H](C)NC1=O', 'satisfied'),
  ('CC(=O)N[C@H]1CCCCC[S@@](=O)C[C@@H](C(N)=O)NC(=O)[C@H](C)NC(=O)[C@H](Cc2ccccc2)NC(=O)[C@H](C)NC1=O', 'satisfied'),
  ('CC(=O)N[C@H]1CCCCC[S@@](=O)C[C@@H](C(N)=O)NC(=O)[C@H](C)NC(=O)[C@H](CCC(N)=O)NC(=O)[C@H](C)NC1=O', 'satisfied'),
  ('CC(=O)N[C@H]1CCCCC[S@@](=O)C[C@@H](C(N)=O)NC(=O)[C@H](C)NC(=O)[C@H](CO)NC(=O)[C@H](C)NC1=O', 'satisfied'),
  ('CC(=O)N[C@H]1CCCCC[S@@](=O)C[C@@H](C(N)=O)NC(=O)[C@H](C)NC(=O)CNC(=O)[C@H](C)NC1=O', 'not satisfied');
